Item-by-item account of TGI
system: SF-539 CNS; assay: NCI tumour cell line growth inhibition, 48 h

{"Molecule": "CC(C)=CC(C)C(C(O)CCC1(c2ccoc2)OCCO1)S(=O)(=O)c1ccccc1 (stereo not drawn)", "TGI": "> 100 µM"}
{"Molecule": "O=c1[nH]c2nccnc2c2c([N+](=O)[O-])cccc12", "TGI": "> 100 µM"}

CC1(CCc2ccccc2)CC1(Br)Br (stereo not drawn) yielded TGI of > 100 µM

----------
Item-by-item account of TGI
test system: A498 renal; assay: NCI tumour cell line growth inhibition, 48 h

{"Molecule": "CCCCCNC(=O)[C@@H]1CCCN2C(=O)CC[C@H](NC(=O)[C@H](Cc3ccc(OP(=O)(O)O)cc3)NC(C)=O)C(=O)N12", "Reported Measurement": "> 25 µM"}
{"Molecule": "Cc1cc(O)c(C(=O)CC2(O)C(=O)Nc3c(Cl)cc(Cl)cc32)c(=O)o1 (stereo not given)", "Reported Measurement": "> 100 µM"}
{"Molecule": "O=C1CSC(c2cccc(Cl)c2)N1c1c(O)c(Cl)cc(Br)c1Cl (stereo not given)", "Reported Measurement": "> 100 µM"}
{"Molecule": "Cc1ccc2ccc(=O)oc2c1", "Reported Measurement": "> 100 µM"}
{"Molecule": "S=c1[nH]c(=S)c2sc(=S)n(-c3ccccc3)c2[nH]1", "Reported Measurement": "> 100 µM"}

"NNC(=Nc1ccccc1)SCc1ccccc1" yielded TGI of > 100 µM

CCC(C)NC(=S)N/N=C(\C)c1ccccn1 (stereo not given) yielded TGI of > 26 µM

"CN(C)NC1=NS(=O)(=O)c2cc3c(cc2S1)N(N(C)C)C(=O)c1cc2c(cc1N(N(C)C)C3=O)SC(NN(C)C)=NS2(=O)=O" yielded TGI of > 10 µM

COC(=O)C1=COC(C)C2C[n+]3ccc4c([nH]c5ccccc54)c3CC12 (stereo not given) yielded TGI of > 100 µM

"c1cc2c(cc1C(N1CCNCC1)N1CCNCC1)OCO2" yielded TGI of > 100 µM
